Quick list: log10(Ki) per entry.
# tgt: PRMT5/MEP50 (Homo sapiens, UniProt O14744)
# Sequence (O14744 whole entry): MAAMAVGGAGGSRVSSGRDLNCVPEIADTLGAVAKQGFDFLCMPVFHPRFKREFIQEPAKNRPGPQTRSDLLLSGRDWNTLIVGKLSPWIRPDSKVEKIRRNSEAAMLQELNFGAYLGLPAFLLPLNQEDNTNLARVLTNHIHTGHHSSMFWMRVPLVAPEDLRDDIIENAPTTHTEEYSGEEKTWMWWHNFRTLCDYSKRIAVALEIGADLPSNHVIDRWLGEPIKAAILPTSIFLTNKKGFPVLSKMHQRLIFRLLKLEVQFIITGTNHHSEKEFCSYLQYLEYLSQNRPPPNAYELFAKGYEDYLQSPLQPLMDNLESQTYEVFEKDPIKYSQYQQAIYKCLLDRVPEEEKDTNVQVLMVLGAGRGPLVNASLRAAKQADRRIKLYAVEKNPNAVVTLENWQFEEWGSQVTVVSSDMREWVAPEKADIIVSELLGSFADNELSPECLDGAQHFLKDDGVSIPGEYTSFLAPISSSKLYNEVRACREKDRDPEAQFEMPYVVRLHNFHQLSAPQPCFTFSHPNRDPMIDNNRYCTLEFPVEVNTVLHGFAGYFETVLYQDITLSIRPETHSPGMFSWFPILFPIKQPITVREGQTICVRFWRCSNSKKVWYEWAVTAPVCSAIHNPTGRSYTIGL
# Sequence (Q9BQA1 whole entry partner): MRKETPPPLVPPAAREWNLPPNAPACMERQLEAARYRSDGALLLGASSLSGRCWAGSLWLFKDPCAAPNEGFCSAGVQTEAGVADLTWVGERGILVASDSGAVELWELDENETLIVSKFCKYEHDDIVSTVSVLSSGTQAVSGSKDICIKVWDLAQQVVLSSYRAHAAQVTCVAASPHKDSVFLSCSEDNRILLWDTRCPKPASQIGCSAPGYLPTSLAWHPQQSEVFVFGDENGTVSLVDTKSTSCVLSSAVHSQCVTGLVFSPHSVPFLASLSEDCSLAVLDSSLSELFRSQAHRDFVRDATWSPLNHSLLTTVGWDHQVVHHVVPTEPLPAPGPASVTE
# test summary: MTase-Glo methyl transferase assay, Method A (Histone H4 peptide, 1 µM MTA, 24 h pre-incubation)
# Assay type: biochemical
# Design: made in house
# applied conditions: read-out: PRMT5 MTase Glo Ki (nM, Meth. A)
Scale: log10; quantity: Ki; unit before log: nM

// below: answered compounds
compound | log10(Ki)
Cc1cc2cc(C(=O)N(Cc3ccc(C(F)(F)F)cn3)[C@@H](c3ncccn3)C3CC3)cnc2nc1N | -0.48
Cc1cc2cc(C(=O)N(Cc3ccc(C(F)(F)F)cn3)[C@H](C)c3ncn(C)n3)ccc2nc1N (single isomer, unassigned) | -0.77
CC(C)CN(Cc1ccc(C(F)(F)F)cn1)C(=O)c1ccc2nc(N)c(Br)cc2c1 | 0.28
Cc1cc2cc(C(=O)N(Cc3ccc(C(F)(F)F)cn3)[C@@H]3CCOc4ccc(F)nc43)ccc2nc1N (single isomer, unassigned) | -1.70
Cc1cc2cc(C(=O)N(Cc3ncccc3F)[C@@H]3CCc4nc(C(F)(F)F)ccc43)ccc2nc1N (single isomer, unassigned) | 0.09
Cc1cc2cc(C(=O)N(Cc3ccc(C#N)cn3)[C@@H](c3ncccn3)C3CC3)ccc2nc1N | -1.15

Turning now to a further compound:
// log10(Ki) value for Cc1cc2cc(C(=O)N(Cc3cccnc3)Cc3ccc(C(F)(F)F)cn3)ccc2nc1N : 0.09

----------
# key: entry, value: pIC50
# Tested on: HCT116 WT cells
# test summary: HCT116 proliferation assay, WT cells (CellTiter-Glo, 6 days)
# Format: cell-based
# applied conditions: Homo sapiens, HCT-116, 144 h, read-out: Prolif_HCT116-WT IC50
# Description: HCT116 MTAP null and WT cells were seeded in 96-well tissue culture plates in RPMI 1640 media + 10% fetal bovine serum. Plates were incubated overnight at 37° C. and 5% CO2. […] Effects on cell viability were measured with the CellTiter-Glo® Luminescent Cell Viability Assay (Promega) per manufacturer’s recommendation. Assay plates were read on an EnVision™ Multilabel Reader using the Ultra-Sensitive luminescence module.
Interpret pIC50 as the negative base-10 log of the concentration measured in mol/L.

Worked examples follow.
compound | measured number
Cc1cc2cc(C(=O)N(Cc3ccc(C(N)=O)cn3)[C@H](C)c3ccccc3F)ccc2nc1N | 5.23
Cc1cc2cc(C(=O)N(Cc3ccc(C(F)(F)F)cn3)Cc3cccc4[nH]ncc34)ccc2nc1N | 5.86
C[C@H](c1ncccn1)N(Cc1ccc(C#N)c(Cl)n1)C(=O)c1ccc2nc(N)c(I)cc2c1 | 5.30
COC[C@H](C1CC1)N(Cc1ccc(C(F)(F)F)cn1)C(=O)c1ccc2nc(N)c(C)cc2c1 (single isomer, unassigned) | 5.27
Cc1cc2cc(C(=O)N(Cc3ccc(C4=CCCOC4)cn3)[C@H](C)c3ncccn3)ccc2nc1N | 5.89
[2H]C([2H])([2H])c1cc2cc(C(=O)N(Cc3ccc(C#N)cn3)[C@H](C)c3ncccn3)ccc2nc1N | 5.55
Cc1cc2cc(C(=O)N(Cc3ccc(C(F)(F)F)cn3)[C@@H]3CCCn4ncnc43)ccc2nc1N (single isomer, unassigned) | 5.82
Cc1cc2cc(C(=O)N(Cc3ccc(C(F)(F)F)cn3)[C@H](C)c3ncon3)ccc2nc1N (single isomer, unassigned) | 6.43
Cc1nc(CN(C(=O)c2cnc3nc(N)c(I)cc3c2)[C@H](C)c2ncccn2)ccc1C#N | 5.26
Cc1cc2cc(C(=O)N(Cc3ccc(C(F)(F)F)nn3)[C@H](C)c3ncccn3)ccc2nc1N (single isomer, unassigned) | 5.89

Field pIC50 (entry Cc1cc2cc(C(=O)N(Cc3ccc(C(F)(F)F)cn3)[C@@H]3CCCC(F)(F)[C@@H]3O)ccc2nc1N (single isomer, unassigned) ) reads 5.37

# pIC50 (compound: Cc1cc2cc(C(=O)N(Cc3ccc(C(F)(F)F)cn3)[C@H](C)c3ncccn3)ncc2nc1N ) is 5.07

The reported value for Cc1cc2cc(C(=O)N(Cc3ccc(C#N)cn3)[C@H](C)c3ncccn3)c(Cl)cc2nc1N in terms of pIC50 is 5.06

Notebook: Cc1cc2cc(C(=O)N(Cc3ccc(C(F)(F)F)cn3)C3CCCc4occc43)ccc2nc1N (stereo not shown) , pIC50 read as 6.55
